Tested on: DMS-53 (Small Cell Lung Carcinoma)
protocol-text: combination Emax (second highest fraction inhibited in the dose matrix, 72 h); higher = more inhibition; extreme values may be limits of the assay
measurement-label: combination Emax

• COc1nnc2ccc(N3CCC(c4ccc(OCCN5CCN(C)C(=O)[C@H]5C)cc4)CC3)nn12 [AZD5153] + CC1(C)CCC(CN2CCN(c3ccc(C(=O)NS(=O)(=O)c4ccc(NCC5CCOCC5)c([N+](=O)[O-])c4)c(Oc4cnc5[nH]ccc5c4)c3)CC2)=C(c2ccc(Cl)cc2)C1 [Venetoclax] (first compound max 1 µM, 7x7, partner max 1 µM) = 0.887
• CC(=O)c1c(C)c2cnc(Nc3ccc(N4CCNCC4)cn3)nc2n(C2CCCC2)c1=O [Palbociclib] + CC1(C)CCC(CN2CCN(c3ccc(C(=O)NS(=O)(=O)c4ccc(NCC5CCOCC5)c([N+](=O)[O-])c4)c(Oc4cnc5[nH]ccc5c4)c3)CC2)=C(c2ccc(Cl)cc2)C1 [Venetoclax] (first compound max 10 µM, 7x7, partner max 1 µM) = 0.327
• C[C@@H]1COCCN1c1cc(C2([S@](C)(=N)=O)CC2)nc(-c2ccnc3[nH]ccc23)n1 [AZD6738] + O=C(c1cc(Cc2n[nH]c(=O)c3ccccc23)ccc1F)N1CCN(C(=O)C2CC2)CC1 [Olaparib] (first compound max 10 µM, 7x7, partner max 10 µM) = 0.148
• CN(CCO)CC[C@H](CSc1ccccc1)Nc1ccc(S(=O)(=O)NC(=O)c2ccc(N3CCC([C@@H](O)c4ccccc4-c4ccc(Cl)cc4)CC3)cc2)cc1S(=O)(=O)C(F)(F)F [AZD4320] + Cn1cnc2c(F)c(Nc3ccc(Br)cc3Cl)c(C(=O)NOCCO)cc21 [Selumetinib] (first compound max 1 µM, 7x7, partner max 3 µM) = 1
• CC1(C)CCC(CN2CCN(c3ccc(C(=O)NS(=O)(=O)c4ccc(NCC5CCOCC5)c([N+](=O)[O-])c4)c(Oc4cnc5[nH]ccc5c4)c3)CC2)=C(c2ccc(Cl)cc2)C1 [Venetoclax] + C[C@@H](Nc1cc(F)cc(F)c1)c1cc(C(=O)N(C)C)cc2c(=O)cc(N3CCOCC3)oc12 [AZD8186] (first compound max 1 µM, 7x7, partner max 3 µM) = 0.137
• Cn1cnc2c(F)c(Nc3ccc(Br)cc3Cl)c(C(=O)NOCCO)cc21 [Selumetinib] + C[C@@H]1COCCN1C2=NC(=NC(=C2)C3(CC3)[S@](=N)(=O)C)C4=C5C=CNC5=NC=C4 [AZD6738] (first compound max 10 µM, 7x7, partner max 10 µM) = 0.151
• Cn1cnc2c(F)c(Nc3ccc(Br)cc3Cl)c(C(=O)NOCCO)cc21 [Selumetinib] + CCN(CCO)CCCOc1ccc2c(Nc3cc(CC(=O)Nc4cccc(F)c4)[nH]n3)ncnc2c1 [AZD2811] (first compound max 10 µM, 7x7, partner max 1 µM) = 0.158
• CC1(C)CCC(CN2CCN(c3ccc(C(=O)NS(=O)(=O)c4ccc(NCC5CCOCC5)c([N+](=O)[O-])c4)c(Oc4cnc5[nH]ccc5c4)c3)CC2)=C(c2ccc(Cl)cc2)C1 [Venetoclax] + Cn1cnc2c(F)c(Nc3ccc(Br)cc3Cl)c(C(=O)NOCCO)cc21 [Selumetinib] (first compound max 1 µM, 7x7, partner max 3 µM) = 0.367

====

Test system: SW620 (Colorectal Carcinoma)
protocol-text: Bliss excess, mean over the matrix (fraction); higher = more synergy
measurement-label: Bliss excess

• N#Cc1cnc(Nc2cc(NC[C@H]3CNCCO3)c(C(F)(F)F)cn2)cn1 [SRA737] + C=CCn1c(=O)c2cnc(Nc3ccc(N4CCN(C)CC4)cc3)nc2n1-c1cccc(C(C)(C)O)n1 [AZD1775] (first compound max 10 µM, partner max 1 µM) = -0.0272
• Cc1cc2ncnn2cc1Nc1ncc2c(n1)n(C1CCOCC1)c(=O)n2C [AZD7648] + C[C@@H]1COCCN1C2=NC(=NC(=C2)C3(CC3)[S@](=N)(=O)C)C4=C5C=CNC5=NC=C4 [AZD6738] (first compound max 10 µM, 7x7, partner max 10 µM) = 0.0264
• Cn1cnc2c(F)c(Nc3ccc(Br)cc3Cl)c(C(=O)NOCCO)cc21 [Selumetinib] + C=CCn1c(=O)c2cnc(Nc3ccc(N4CCN(C)CC4)cc3)nc2n1-c1cccc(C(C)(C)O)n1 [AZD1775] (first compound max 10 µM, partner max 1 µM) = -0.0198
• CN(C)CCCOc1ccc(-c2ccc3ncc4c(c3c2)n(C2CCOCC2)c(=O)n4C)cn1 [AZD0156] + CCN(CCO)CCCOc1ccc2c(Nc3cc(CC(=O)Nc4cccc(F)c4)[nH]n3)ncnc2c1 [AZD2811] (first compound max 1 µM, 7x7, partner max 1 µM) = -0.0064

====

System: MDA-MB-436 (Breast Carcinoma)
protocol-text: Bliss excess, mean over the matrix (fraction); higher = more synergy
measurement-label: Bliss excess

* COc1nnc2ccc(N3CCC(c4ccc(OCCN5CCN(C)C(=O)[C@H]5C)cc4)CC3)nn12 [AZD5153] + Cn1cnc2c(F)c(Nc3ccc(Br)cc3Cl)c(C(=O)NOCCO)cc21 [Selumetinib] (first compound max 1 µM, 7x7, partner max 10 µM) | -0.0275
* O=C(c1cc(Cc2n[nH]c(=O)c3ccccc23)ccc1F)N1CCN(C(=O)C2CC2)CC1 [Olaparib] + COc1nnc2ccc(N3CCC(c4ccc(OCCN5CCN(C)C(=O)[C@H]5C)cc4)CC3)nn12 [AZD5153] (first compound max 10 µM, 7x7, partner max 1 µM) | -0.0247

====

System: NCI-H441 (Lung Adenocarcinoma)
protocol-text: Bliss excess, mean over the matrix (fraction); higher = more synergy
Measured Bliss excess, listed per entry for reference.
measurement-label: Bliss excess

- NC1(C(=O)N[C@@H](CCO)c2ccc(Cl)cc2)CCN(c2ncnc3[nH]ccc23)CC1 [Capivasertib] + Cn1cnc2c(F)c(Nc3ccc(Br)cc3Cl)c(C(=O)NOCCO)cc21 [Selumetinib] (first compound max 10 µM, 7x7, partner max 10 µM): -0.0041
- NC1(C(=O)N[C@@H](CCO)c2ccc(Cl)cc2)CCN(c2ncnc3[nH]ccc23)CC1 [Capivasertib] + C[C@@H]1COCCN1C2=NC(=NC(=C2)C3(CC3)[S@](=N)(=O)C)C4=C5C=CNC5=NC=C4 [AZD6738] (first compound max 10 µM, 7x7, partner max 10 µM): -0.0011
- Cc1c2c(nn1C)CSCc1cc(n(C)n1)CSc1cc(c3ccccc3c1)OCCCc1c(C(=O)O)n(C)c3c-2c(Cl)ccc13 [AZD5991] + CN(C)CCCOc1ccc(-c2ccc3ncc4c(c3c2)n(C2CCOCC2)c(=O)n4C)cn1 [AZD0156] (first compound max 1 µM, 7x7, partner max 1 µM): 0.0031
- Cc1c2c(nn1C)CSCc1cc(n(C)n1)CSc1cc(c3ccccc3c1)OCCCc1c(C(=O)O)n(C)c3c-2c(Cl)ccc13 [AZD5991] + C[C@@H]1COCCN1C2=NC(=NC(=C2)C3(CC3)[S@](=N)(=O)C)C4=C5C=CNC5=NC=C4 [AZD6738] (first compound max 1 µM, 7x7, partner max 10 µM): 0.0073

====

Test system: A253 (Head and Neck Carcinoma)
protocol-text: Bliss excess, mean over the matrix (fraction); higher = more synergy
Parameter Bliss excess: see the listing below.
measurement-label: Bliss excess

• Cc1nc(Nc2ncc(C(=O)Nc3c(C)cccc3Cl)s2)cc(N2CCN(CCO)CC2)n1 [Dasatinib] + CC(=O)Nc1cccc(-n2c(=O)n(C3CC3)c(=O)c3c(Nc4ccc(I)cc4F)n(C)c(=O)c(C)c32)c1 [Trametinib] (first compound max 2 µM, 7x7, partner max 1 µM) = -0.189
• COc1cccc(OCCCN)c1-c1cc(Nc2cnc(C#N)cn2)n[nH]1 [Prexasertib] + Cc1cc2ncnn2cc1Nc1ncc2c(n1)n(C1CCOCC1)c(=O)n2C [AZD7648] (first compound max 1 µM, 7x7, partner max 10 µM) = -0.0228
• Cc1c2c(nn1C)CSCc1cc(n(C)n1)CSc1cc(c3ccccc3c1)OCCCc1c(C(=O)O)n(C)c3c-2c(Cl)ccc13 [AZD5991] + Cc1cc2ncnn2cc1Nc1ncc2c(n1)n(C1CCOCC1)c(=O)n2C [AZD7648] (first compound max 1 µM, 7x7, partner max 10 µM) = -0.0286
• CN(C)CCCOc1ccc(-c2ccc3ncc4c(c3c2)n(C2CCOCC2)c(=O)n4C)cn1 [AZD0156] + CCN(CCO)CCCOc1ccc2c(Nc3cc(CC(=O)Nc4cccc(F)c4)[nH]n3)ncnc2c1 [AZD2811] (first compound max 1 µM, 7x7, partner max 1 µM) = -0.0119
• Cn1cnc2c(F)c(Nc3ccc(Br)cc3Cl)c(C(=O)NOCCO)cc21 [Selumetinib] + CC(C)n1c(=O)n(C)c2cnc3cc(F)c(-c4ccc(OCCCN5CCCCC5)nc4)cc3c21 [AZD1390] (first compound max 10 µM, 7x7, partner max 0.3 µM) = -0.0504
• CC1(C)CCC(CN2CCN(c3ccc(C(=O)NS(=O)(=O)c4ccc(NCC5CCOCC5)c([N+](=O)[O-])c4)c(Oc4cnc5[nH]ccc5c4)c3)CC2)=C(c2ccc(Cl)cc2)C1 [Venetoclax] + C1CN(CCC1(C(=O)N[C@@H](CCO)C2=CC=C(C=C2)Cl)N)C3=NC=NC4=C3C=CN4 [Capivasertib] (first compound max 1 µM, 7x7, partner max 3 µM) = -0.0084
• Cc1c2c(nn1C)CSCc1cc(n(C)n1)CSc1cc(c3ccccc3c1)OCCCc1c(C(=O)O)n(C)c3c-2c(Cl)ccc13 [AZD5991] + CN(C)CCCOc1ccc(-c2ccc3ncc4c(c3c2)n(C2CCOCC2)c(=O)n4C)cn1 [AZD0156] (first compound max 1 µM, 7x7, partner max 1 µM) = 0.0058
• Cc1cc2ncnn2cc1Nc1ncc2c(n1)n(C1CCOCC1)c(=O)n2C [AZD7648] + C[C@@H]1COCCN1C2=NC(=NC(=C2)C3(CC3)[S@](=N)(=O)C)C4=C5C=CNC5=NC=C4 [AZD6738] (first compound max 10 µM, 7x7, partner max 10 µM) = 0.0402
• COc1cccc2c1C(=O)c1c(O)c3c(c(O)c1C2=O)C[C@@](O)(C(=O)CO)C[C@@H]3O[C@H]1C[C@H](N)[C@H](O)[C@H](C)O1 [Doxorubicin] + Cc1cc2ncnn2cc1Nc1ncc2c(n1)n(C1CCOCC1)c(=O)n2C [AZD7648] (first compound max 1 µM, 7x7, partner max 10 µM) = 0.108
• COc1cccc(OCCCN)c1-c1cc(Nc2cnc(C#N)cn2)n[nH]1 [Prexasertib] + CN(C)CCCOc1ccc(-c2ccc3ncc4c(c3c2)n(C2CCOCC2)c(=O)n4C)cn1 [AZD0156] (first compound max 1 µM, 7x7, partner max 1 µM) = -0.0379
• CC(=O)c1c(C)c2cnc(Nc3ccc(N4CCNCC4)cn3)nc2n(C2CCCC2)c1=O [Palbociclib] + CN(CC[C@H](CSC1=CC=CC=C1)NC2=C(C=C(C=C2)S(=O)(=O)NC(=O)C3=CC=C(C=C3)N4CCC(CC4)[C@H](C5=CC=CC=C5C6=CC=C(C=C6)Cl)O)S(=O)(=O)C(F)(F)F)CCO [AZD4320] (first compound max 10 µM, 7x7, partner max 1 µM) = -0.101
• Cn1cnc2c(F)c(Nc3ccc(Br)cc3Cl)c(C(=O)NOCCO)cc21 [Selumetinib] + CCN(CCO)CCCOc1ccc2c(Nc3cc(CC(=O)Nc4cccc(F)c4)[nH]n3)ncnc2c1 [AZD2811] (first compound max 10 µM, 7x7, partner max 1 µM) = -0.018
• CN(C)CCCOc1ccc(-c2ccc3ncc4c(c3c2)n(C2CCOCC2)c(=O)n4C)cn1 [AZD0156] + C=CCn1c(=O)c2cnc(Nc3ccc(N4CCN(C)CC4)cc3)nc2n1-c1cccc(C(C)(C)O)n1 [AZD1775] (first compound max 1 µM, partner max 1 µM) = -0.0389
• COc1nnc2ccc(N3CCC(c4ccc(OCCN5CCN(C)C(=O)[C@H]5C)cc4)CC3)nn12 [AZD5153] + CCN(CCO)CCCOc1ccc2c(Nc3cc(CC(=O)Nc4cccc(F)c4)[nH]n3)ncnc2c1 [AZD2811] (first compound max 1 µM, 7x7, partner max 1 µM) = -0.0153
